assay-target: Muscarinic acetylcholine receptor
test-description: Compound was assessed for the binding affinity against muscarinic receptor subtypes in rat brain using [3H]OXO-M radioligand as a muscarinic receptor agonist at a concentration of 0.2 nM
Format: tissue-based
# fulfilled = IC50 below 4 nM (exclusive); not fulfilled = IC50 at/above 4 nM

INSERT INTO results (substance_smiles, assay_target, class_label) VALUES
  ('CN(C)CC#CCN1OCCC1=O', 'Muscarinic acetylcholine receptor', 'not fulfilled'),
  ('C[N+](C)(C)CC#CCN1OCCC1=O', 'Muscarinic acetylcholine receptor', 'fulfilled'),
  ('O=C1CCON1CC#CCN1CCCC1', 'Muscarinic acetylcholine receptor', 'fulfilled');

Shift focus to the following entry.
Data request: Is it true that IC50 reported for O=C1CCCN1CC#CCN1CCCC1 is less than 4 nM?
Data returned: fulfilled
